Test: Selectivity index, ratio of EC50 for mouse J774 cells to EC50 for bloodstream forms of Trypanosoma brucei brucei 427 stably transfected with pHD449 plasmid
Type: toxicity, cell-based
Conditions: read-out: Ratio EC50

- chemical.structure: "O=C(CN1C(=O)Cc2c([nH]c3ccc(Br)cc23)-c2ccc(Cl)cc21)NCc1ccccc1"
  comparator: "="
  selectivity ratio: 1410
- chemical.structure: "O=C(CN1C(=O)Cc2c([nH]c3ccc(Br)cc23)-c2ccc(Cl)cc21)NCc1ccc(Cl)cc1"
  comparator: ">"
  selectivity ratio: 62
- chemical.structure: "O=C(CN1C(=O)Cc2c([nH]c3ccc(Br)cc23)-c2ccc(Cl)cc21)NCc1cccc(Cl)c1"
  comparator: "="
  selectivity ratio: 91
- chemical.structure: "Cc1ccc(CNC(=O)CN2C(=O)Cc3c([nH]c4ccc(Br)cc34)-c3ccc(Cl)cc32)cc1"
  comparator: ">"
  selectivity ratio: 167
- chemical.structure: "COc1ccc(CNC(=O)CN2C(=O)Cc3c([nH]c4ccc(Br)cc34)-c3ccc(Cl)cc32)cc1"
  comparator: "="
  selectivity ratio: 22

----------
Tested on: Trypanosoma brucei
Assay: Inhibition of Trypanosoma brucei recombinant His-tagged TryS expressed in Escherichia coli BL21 (DE3) assessed as residual enzyme activity by measuring inorganic phosphate release at 30 uM after 15 mins by malachite green dye based end-point assay
Here the recorded Activity is given for each entry.

- chemical.structure: "O=C(CN1C(=O)Cc2c([nH]c3ccc(Br)cc23)-c2ccc(Cl)cc21)NCc1ccncc1"
  Activity / %: 65.2
- chemical.structure: "CNCCNC(=O)CN1C(=O)Cc2c([nH]c3ccc(C(F)(F)F)cc23)-c2ccccc21"
  Activity / %: 70
- chemical.structure: "O=C(CN1C(=O)Cc2c([nH]c3ccc(Br)cc23)-c2ccc(Cl)cc21)NCc1cccnc1"
  Activity / %: 64.8
- chemical.structure: "O=C(CN1C(=O)Cc2c([nH]c3ccc(Br)cc23)-c2ccc(Cl)cc21)NCc1ccccc1"
  Activity / %: 45.2
- chemical.structure: "O=C(CN1C(=O)Cc2c([nH]c3ccc(Br)cc23)-c2ccc(Cl)cc21)NCc1ccc(Cl)cc1"
  Activity / %: 50.1
- chemical.structure: "O=C(CN1C(=O)Cc2c([nH]c3ccc(Br)cc23)-c2ccc(Cl)cc21)NCc1ccc(O)cc1"
  Activity / %: 58
- chemical.structure: "O=C(CN1C(=O)Cc2c([nH]c3ccc(Br)cc23)-c2ccc(Cl)cc21)NCc1ccccn1"
  Activity / %: 75.8
- chemical.structure: "O=C(CN1C(=O)Cc2c([nH]c3ccc(Br)cc23)-c2ccc(Cl)cc21)NCc1ccccc1Cl"
  Activity / %: 55.3
- chemical.structure: "O=C(CN1C(=O)Cc2c([nH]c3ccc(Br)cc23)-c2ccc(Cl)cc21)NCc1ccc(Cl)c(Cl)c1"
  Activity / %: 42

----------
Here the recorded Activity is given for each entry.
Tested on: Trypanosoma cruzi
Test: Inhibition of Trypanosoma cruzi recombinant His-tagged TryS expressed in Escherichia coli BL21 (DE3) assessed as residual enzyme activity by measuring inorganic phosphate release at 30 uM after 15 mins by malachite green dye based end-point assay

- chemical.structure: "O=C(CN1C(=O)Cc2c([nH]c3ccc(Br)cc23)-c2ccc(Cl)cc21)NCc1ccncc1"
  Activity (%): 58.1
- chemical.structure: "O=C(CN1C(=O)Cc2c([nH]c3ccc(Br)cc23)-c2ccc(Cl)cc21)NCc1ccccc1"
  Activity (%): 72.8
- chemical.structure: "O=C(CN1C(=O)Cc2c([nH]c3ccc(Br)cc23)-c2ccc(Cl)cc21)NCc1ccccn1"
  Activity (%): 54.8
- chemical.structure: "CNCCNC(=O)CN1C(=O)Cc2c([nH]c3ccc(C(F)(F)F)cc23)-c2ccccc21"
  Activity (%): 44.5
